Cited source: the supplement of paper PMC10266784

B1: library; numbered along this chain (parent)
chain: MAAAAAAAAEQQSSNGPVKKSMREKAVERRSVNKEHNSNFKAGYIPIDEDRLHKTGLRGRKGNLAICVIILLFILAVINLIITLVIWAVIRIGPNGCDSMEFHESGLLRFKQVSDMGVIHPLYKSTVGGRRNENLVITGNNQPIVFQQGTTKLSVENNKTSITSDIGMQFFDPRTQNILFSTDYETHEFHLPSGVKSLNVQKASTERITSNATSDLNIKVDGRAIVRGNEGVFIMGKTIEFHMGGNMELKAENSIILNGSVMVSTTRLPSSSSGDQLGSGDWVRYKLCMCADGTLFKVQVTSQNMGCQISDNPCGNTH

Variants of: B1
test summary: SGCB cell-surface expression functional score (HA stain, bin4 vs bin1, normalised to synonymous) (log10 ratio); higher = more cell-surface SGCB (functional)
Rule: SGCB cell-surface expression functional score (log10) under -0.1 gives no (0), otherwise yes (1).

# mutation notation, class
records = [
    ("I86P", "no (0)"),
]

Given the entry F40R , answer whether its SGCB cell-surface expression functional score (log10) meets or surpasses -0.1. yes (1)

Given the entry A3Y , answer whether its SGCB cell-surface expression functional score (log10) meets or surpasses -0.1. yes (1)

Given the entry T294I , answer whether its SGCB cell-surface expression functional score (log10) meets or surpasses -0.1. yes (1)

Given the entry N63F , answer whether its SGCB cell-surface expression functional score (log10) meets or surpasses -0.1. yes (1)

Given the entry A88P , answer whether its SGCB cell-surface expression functional score (log10) meets or surpasses -0.1. no (0)
